These entries and their values trace back to patent US12178791B2.

METHOD_SUMMARY: In vivo pharmacokinetics, plasma concentration after p.o. dosing
Set-up: species or system Wistar rats
STUDY_CONDITIONS: male, Wistar, plasma, po; rat, 10 mg/kg p.o., 3.00 hours
Where a name gives a salt, the structure may show the parent alone.
QUANTITY_NAME: concentration at 3 h (ng/mL)
Quick reminder: number only, in ng/mL, skip the unit.

INPUT: Annotate the molecule NC/C=C(\F)CS(=O)(=O)c1ccccc1 [Compound 1, hydrochloride] with its measured concentration at 3 h.
OUTPUT: 66.4

----------
Where a name gives a salt, the structure may show the parent alone.
Consider the following IC50 values measured on LOXL2 (Homo sapiens (Human), UniProt Q9Y4K0).
Sequence (Q9Y4K0 26-774): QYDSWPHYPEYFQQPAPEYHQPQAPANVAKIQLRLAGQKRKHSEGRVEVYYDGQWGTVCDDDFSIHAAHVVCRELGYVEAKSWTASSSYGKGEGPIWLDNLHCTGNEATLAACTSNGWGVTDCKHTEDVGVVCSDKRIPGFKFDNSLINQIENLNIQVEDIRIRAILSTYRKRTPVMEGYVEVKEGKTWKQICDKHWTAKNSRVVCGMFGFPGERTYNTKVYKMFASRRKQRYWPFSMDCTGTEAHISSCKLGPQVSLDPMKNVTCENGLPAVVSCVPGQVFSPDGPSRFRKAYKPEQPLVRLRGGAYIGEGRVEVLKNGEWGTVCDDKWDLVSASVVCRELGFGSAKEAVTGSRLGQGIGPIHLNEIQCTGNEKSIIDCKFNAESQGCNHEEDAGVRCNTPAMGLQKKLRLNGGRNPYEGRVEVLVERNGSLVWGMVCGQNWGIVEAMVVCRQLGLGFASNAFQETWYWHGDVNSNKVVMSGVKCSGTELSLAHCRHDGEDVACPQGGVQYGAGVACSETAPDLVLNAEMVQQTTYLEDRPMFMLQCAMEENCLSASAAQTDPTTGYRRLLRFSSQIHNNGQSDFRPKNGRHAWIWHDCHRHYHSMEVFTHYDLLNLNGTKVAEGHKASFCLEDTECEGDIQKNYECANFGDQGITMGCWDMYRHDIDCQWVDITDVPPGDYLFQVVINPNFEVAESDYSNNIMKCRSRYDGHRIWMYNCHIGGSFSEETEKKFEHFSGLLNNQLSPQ

Observe how each entry below is paired with its result.
MOLECULE | IC50
CN(C)S(=O)(=O)c1cccc(Oc2ccccc2S(=O)(=O)C/C(F)=C/CN)c1 [Compound 18, hydrochloride] | < 1 µM
Cc1ccccc1S(=O)(=O)C/C(F)=C/CN [Compound 40, hydrochloride] | < 1 µM
Cc1cc(S(=O)(=O)C/C(F)=C/CN)ccn1 [Compound 44, dihydrochloride] | < 1 µM
CN(C)S(=O)(=O)c1ccc(COc2ccccc2S(=O)(=O)C/C(F)=C/CN)cc1 [Compound 5, hydrochloride] | < 1 µM

INPUT: Annotate the molecule NC/C=C(\F)CS(=O)(=O)c1cc(Cl)cc(Cl)c1 [Compound 28, hydrochloride] with its measured IC50.
OUTPUT: < 1 µM

INPUT: Annotate the molecule N#CCCN [BAPN, β-aminopropionitrile] with its measured IC50.
OUTPUT: < 1 µM

INPUT: Annotate the molecule NC/C=C(\F)CS(=O)(=O)c1ccc(F)cc1 [Compound 39, hydrochloride] with its measured IC50.
OUTPUT: < 1 µM

INPUT: Annotate the molecule Cc1cccnc1S(=O)(=O)C/C(F)=C/CN [Compound 43, dihydrochloride] with its measured IC50.
OUTPUT: < 1 µM
